Catalogue of MIC values
Test system: Streptococcus sp. 'group B'
PROTOCOL DESCRIPTION: Antimicrobial activity against Group B streptococcus R8 harboring T77I, S353F and A514V in PBP 2X; V80A and G613R in PBP 2B; and L45P, N163K, N723S and G527V in PBP 1A by broth microdilution method
Assay type: functional
Unit µg/mL implied. Number only.

[[record]]
compound = "CC[C@H]1OC(=O)[C@H](C)[C@@H](O[C@H]2C[C@@](C)(OC)[C@@H](O)[C@H](C)O2)[C@H](C)[C@@H](O[C@@H]2O[C@H](C)C[C@H](N(C)C)[C@H]2O)[C@](C)(OC)C[C@@H](C)C(=O)[C@H](C)[C@@H](O)[C@]1(C)O [CLARITHROMYCIN]"
endpoint_label = "MIC"
reported_result = 1


Here is another compound to look at.
Given item CO/N=C(\C(=O)N[C@@H]1C(=O)N2C(C(=O)OCOC(=O)C(C)(C)C)=C(/C=C\c3scnc3C)CS[C@H]12)c1csc(N)n1 [CEFDITOREN PIVOXIL] , the value recorded as its MIC is 0.5

* * *

Tested on: Streptococcus sp. 'group B'
PROTOCOL DESCRIPTION: Antimicrobial activity against Group B streptococcus R8 harboring T77I, S353F and A514V in PBP 2X; V80A and G613R in PBP 2B; and L45P, N163K, N723S and G527V in PBP 1A by broth microdilution method
Format: functional
Catalogue of MIC values

// solved cases for MIC follow
[[record]]
query_smiles = "C=CC1=C(C(=O)O)N2C(=O)[C@@H](NC(=O)/C(=N\\OCC(=O)O)c3csc(N)n3)[C@H]2SC1"
reported_result = "> 1 µg/mL"

[[record]]
query_smiles = "CN(C)CCn1nnnc1SCC1=C(C(=O)O)N2C(=O)[C@@H](NC(=O)Cc3csc(N)n3)[C@H]2SC1"
reported_result = "> 4 µg/mL"


Here is another compound to look at.
Given item C[C@H]1COc2c(N3CCN(C)CC3)c(F)cc3c(=O)c(C(=O)O)cn1c23.C[C@H]1COc2c(N3CCN(C)CC3)c(F)cc3c(=O)c(C(=O)O)cn1c23.O , the value recorded as its MIC is > 8 µg/mL

* * *

Tested on: Streptococcus sp. 'group B'
PROTOCOL DESCRIPTION: Antimicrobial activity against Group B streptococcus R8 harboring T77I, S353F and A514V in PBP 2X; V80A and G613R in PBP 2B; and L45P, N163K, N723S and G527V in PBP 1A by broth microdilution method
Type: functional
ENDPOINT LABEL: MIC

[[record]]
query_smiles = "CN(C)[C@@H]1C(O)=C(C(N)=O)C(=O)[C@@]2(O)C(O)=C3C(=O)c4c(O)cccc4[C@@](C)(O)[C@H]3C[C@@H]12"
reported_result = "> 4 µg/mL"


Given item CC[C@H]1OC(=O)[C@H](C)[C@@H](O[C@H]2C[C@@](C)(OC)[C@@H](O)[C@H](C)O2)[C@H](C)[C@@H](O[C@@H]2O[C@H](C)C[C@H](N(C)C)[C@H]2O)[C@](C)(O)C[C@@H](C)C(=O)[C@H](C)[C@@H](O)[C@]1(C)O , the value recorded as its MIC is > 2 µg/mL

Given item CCC[C@@H]1C[C@@H](C(=O)N[C@@H]([C@H]2O[C@H](SC)[C@H](O)[C@@H](O)[C@H]2O)[C@H](C)Cl)N(C)C1 , the value recorded as its MIC is ≤ 0.12 µg/mL
